target: SARS-CoV-2 Omicron BA.2.13 RBD (SARS-CoV-2 Omicron BA.2.13, L452M); assay: BLI
pKd: −log10 of the molar value.
pKd listing for selected binders.
Measured quantity: pKd

| Binder | Recorded result |
| --- | --- |
| BD56-104 (antibody, V domains shown) VH: QVQLVQSGAEVKTPGSSVKVSCKASGGTFGSHSITWVRQAPGQGLEWMGRVIPILGIPDFAESFQGRVAITADRSTSTAHMELSRLRSEDTAVYYCARDVGYSGSGSSNYFDSWGQGTLVTVSS VL: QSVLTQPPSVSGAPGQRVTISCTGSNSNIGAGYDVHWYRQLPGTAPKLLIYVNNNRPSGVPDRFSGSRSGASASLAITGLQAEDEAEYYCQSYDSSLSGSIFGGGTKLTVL | > 8.68 |
| BD56-597 (antibody, V domains shown) VH: QVQLVQSGAEVKKPGSSVKVSCKASGGTFSTYPISWVRQAPGQGVEWMGAIIPILGTTDYAQIFQGRVTITADKSTSTAYMELSSLRPEDTAVYYCARERGYSGYGAAYYFDSWGQGTLVTVSS VL: QSVLTQPPSVSGAPGQRVTISCTGSDSNIGAGYDVHWYQQLPGTAPKLLIYVNINRPSGVPDRFSGSKSATSASLAITGLQAEDEADYYCQSYDSSLSGVVFGGGTKLTVL | > 8.68 |
